- TARGET_UNDER_TEST: Bromodomain-containing protein 4 (Homo sapiens, UniProt O60885)
- ASSAY: Displacement of biotinylated tetra-acetylated histone H4 from His-tagged BRD4 bromodomain1 (42 to 168 residues) (unknown origin) incubated for 30 mins by Alphascreen assay
MEASUREMENT_KIND: IC50 (nM)
The response must be a number in nM with no trailing unit.

Query: Look up and report measured IC50 for this entry: Cc1noc(C)c1-c1ccc2c(c1)C(C)(c1ccccc1)N(C)C(=O)N2 (stereo unspecified)
Reply: 34

====

- TARGET_UNDER_TEST: Bromodomain-containing protein 1 (Homo sapiens)
- Sequence (O95696 whole entry): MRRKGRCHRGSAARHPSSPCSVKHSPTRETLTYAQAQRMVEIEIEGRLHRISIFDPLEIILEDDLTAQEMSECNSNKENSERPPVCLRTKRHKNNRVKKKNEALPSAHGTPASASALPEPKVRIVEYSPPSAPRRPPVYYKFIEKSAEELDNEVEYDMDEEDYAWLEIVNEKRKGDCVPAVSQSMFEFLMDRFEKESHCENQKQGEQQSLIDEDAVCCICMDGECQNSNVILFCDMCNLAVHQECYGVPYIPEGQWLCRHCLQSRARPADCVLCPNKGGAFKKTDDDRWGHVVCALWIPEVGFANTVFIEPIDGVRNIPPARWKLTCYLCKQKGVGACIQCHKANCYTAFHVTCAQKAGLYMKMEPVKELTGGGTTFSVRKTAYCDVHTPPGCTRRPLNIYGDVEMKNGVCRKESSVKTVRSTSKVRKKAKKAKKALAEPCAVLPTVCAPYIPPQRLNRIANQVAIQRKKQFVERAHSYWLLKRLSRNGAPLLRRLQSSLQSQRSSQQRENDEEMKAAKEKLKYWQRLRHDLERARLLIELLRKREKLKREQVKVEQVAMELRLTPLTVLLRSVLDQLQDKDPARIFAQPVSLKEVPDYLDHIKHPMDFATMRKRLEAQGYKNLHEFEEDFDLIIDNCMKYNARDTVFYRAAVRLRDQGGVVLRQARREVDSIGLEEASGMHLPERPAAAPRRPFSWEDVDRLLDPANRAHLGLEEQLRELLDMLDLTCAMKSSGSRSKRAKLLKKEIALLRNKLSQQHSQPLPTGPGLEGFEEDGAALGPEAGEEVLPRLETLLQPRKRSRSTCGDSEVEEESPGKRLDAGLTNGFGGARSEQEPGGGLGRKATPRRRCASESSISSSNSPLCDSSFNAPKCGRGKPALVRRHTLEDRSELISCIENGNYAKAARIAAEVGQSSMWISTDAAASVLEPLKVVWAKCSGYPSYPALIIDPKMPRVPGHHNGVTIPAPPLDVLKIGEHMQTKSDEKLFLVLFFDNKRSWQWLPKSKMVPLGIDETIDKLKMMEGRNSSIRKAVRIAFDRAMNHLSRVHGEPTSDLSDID
- ASSAY: Binding affinity to BRPF2 (unknown origin) by isothermal titration calorimetric analysis
MEASUREMENT_KIND: Kd (nM)
# number only, unit nM dropped from output

Query: Hello, please tell me recorded Kd for this one: COc1cc2c(cc1NS(=O)(=O)c1ccc(Br)cc1C)n(C)c(=O)n2C
Reply: 500

====

- TARGET_UNDER_TEST: Bromodomain-containing protein 9 (Homo sapiens)
- Sequence (Q9H8M2 whole entry): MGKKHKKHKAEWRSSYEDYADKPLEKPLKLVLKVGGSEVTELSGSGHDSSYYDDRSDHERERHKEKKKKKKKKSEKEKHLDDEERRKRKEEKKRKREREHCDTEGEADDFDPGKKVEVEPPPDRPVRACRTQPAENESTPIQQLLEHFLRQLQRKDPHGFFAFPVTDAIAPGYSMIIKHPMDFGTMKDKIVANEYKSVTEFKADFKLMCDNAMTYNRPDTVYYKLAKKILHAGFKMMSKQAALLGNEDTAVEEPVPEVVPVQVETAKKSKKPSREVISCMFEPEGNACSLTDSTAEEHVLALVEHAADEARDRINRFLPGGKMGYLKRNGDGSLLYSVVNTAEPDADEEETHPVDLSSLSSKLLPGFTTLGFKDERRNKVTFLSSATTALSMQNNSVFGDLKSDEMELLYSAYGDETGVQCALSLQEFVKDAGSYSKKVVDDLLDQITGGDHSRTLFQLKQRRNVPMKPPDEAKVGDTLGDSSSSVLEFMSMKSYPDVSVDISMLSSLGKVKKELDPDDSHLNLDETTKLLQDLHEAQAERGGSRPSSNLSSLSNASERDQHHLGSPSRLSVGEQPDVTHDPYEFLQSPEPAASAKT
- ASSAY: Binding affinity to BRD9 (unknown origin) by isothermal titration calorimetric analysis
MEASUREMENT_KIND: Kd (nM)
Numeric only. Scale: nM

Query: Give Kd for the following compound: Cc1cc(=O)n(C)c2cc(N3C(=O)CC[C@H](NC(=O)OC(C)(C)C)[C@H]3c3ccccc3)ccc12
Reply: 493

Recorded values, source ChEMBL document CHEMBL3785033.
